Record form. Attribute: ID50. Fill in for each entry.
# Test system: Human immunodeficiency virus type 1 reverse transcriptase (Human immunodeficiency virus 1), Q72547 [K103N]
Numbers only, in µM.

Give ID50 for each listed item.
1. Cc1c(Cc2c(F)cccc2Cl)nc(SCC(=O)c2ccccc2)[nH]c1=O
2. O=C(CSc1nc(Cc2c(Cl)cccc2Cl)cc(=O)[nH]1)c1ccccc1
3. Cc1c(Cc2c(F)cccc2Cl)nc(SCC(=O)c2ccc(F)cc2)[nH]c1=O
4. O=C(CSc1nc(Cc2c(Cl)cccc2Cl)cc(=O)[nH]1)c1ccc(F)cc1
5. CC(C)c1c(Cc2c(F)cccc2F)nc(SCC(=O)c2ccc(F)cc2)[nH]c1=O

output:
23
3.7
5.35
9.7
5.82

###

Record form. Attribute: Ratio. Fill in for each entry.
# System: Human immunodeficiency virus 1
# test: Resistance index, ratio of ID50 for reverse transcriptase L100I mutant to IC50 for wild-type HIV1 reverse transcriptase
Answers are plain numbers.

Known Ratio results, listed for orientation:
compound: CCc1c(Cc2c(Cl)cccc2Cl)nc(SCC(=O)c2ccccc2)[nH]c1=O
Ratio: 50

compound: CC(C)c1c(Cc2c(Cl)cccc2Cl)nc(SCC(=O)c2ccccc2)[nH]c1=O
Ratio: 326

compound: CCc1c(Cc2c(F)cccc2Cl)nc(SCC(=O)c2ccc(F)cc2)[nH]c1=O
Ratio: 170

compound: CCC(C)c1c(Cc2c(F)cccc2Cl)nc(SCC(=O)c2ccc(F)cc2)[nH]c1=O (stereo not given)
Ratio: 1360

input: Requested field: Ratio. Item: Cc1c(Cc2c(F)cccc2F)nc(SCC(=O)c2ccc(F)cc2)[nH]c1=O
output: 96

###

Record form. Attribute: CC50. Fill in for each entry.
# test: Cytotoxicity against human MT4 cells by MTT assay
# Assay type: cell-based

Known CC50 results, listed for orientation:
mol: CCc1c(Cc2c(Cl)cccc2Cl)nc(SCC(=O)c2ccccc2)[nH]c1=O
result: > 52 µM
--
mol: O=c1cc(Cc2c(F)cccc2F)nc(SCCc2ccccc2)[nH]1
result: > 70 µM
--
mol: CC(C)c1c(Cc2c(F)cccc2F)nc(SCC(=O)c2ccccc2)[nH]c1=O
result: > 60 µM
--
mol: CCc1c(Cc2c(F)cccc2Cl)nc(SCC(=O)c2ccccc2)[nH]c1=O
result: > 12 µM

Query molecule follows.
input: Requested field: CC50. Item: COc1ccc(C(=O)CSc2nc(Cc3cccc4ccccc34)c(C(C)C)c(=O)[nH]2)cc1
output: 203 µM

###

Record form. Attribute: Ratio. Fill in for each entry.
# Tested on: Human immunodeficiency virus 1
# test: Resistance index, ratio of ID50 for reverse transcriptase K103N mutant to IC50 for wild-type HIV1 sreverse transcriptase
One number for each entry.

Known Ratio results, listed for orientation:
compound: Cc1c(Cc2c(F)cccc2Cl)nc(SCC(=O)c2ccc(F)cc2)[nH]c1=O
measured on: Human immunodeficiency virus 1
Ratio: 30
--
compound: CCc1c(Cc2c(F)cccc2Cl)nc(SCC(=O)c2ccc(F)cc2)[nH]c1=O
measured on: Human immunodeficiency virus 1
Ratio: 50
--
compound: CC(C)c1c(Cc2c(F)cccc2F)nc(SCC(=O)c2ccc(F)cc2)[nH]c1=O
measured on: Human immunodeficiency virus 1
Ratio: 71
--
compound: CCc1c(Cc2c(Cl)cccc2Cl)nc(SCC(=O)c2ccccc2)[nH]c1=O
measured on: Human immunodeficiency virus 1
Ratio: 26

input: Requested field: Ratio. Item: CCC(C)c1c(Cc2c(F)cccc2Cl)nc(SCC(=O)c2ccc(OC)cc2)[nH]c1=O (stereo not given)
output: 84
